Provenance of the data: paper PMC6271077

# System: M. tuberculosis isoniazid-sensitive strain (spec. 192)
# Protocol notes: Tuberculostatic activity, test-tube dilution
# Type: cell-based
# Conditions: Mycobacterium tuberculosis, read-out: MIC M. tuberculosis Isoniazid-Sensitive Strain
Value type: MIC (mg/L)
Give a bare numeral; the unit mg/L is implied.

[
  {
    "Compound": "CC[C@@H](C(=O)[C@@H](C)[C@@H](O)[C@H](C)[C@@H]1O[C@@H]([C@@H](CC)C(=O)O)CC[C@@H]1C)[C@H]1O[C@]2(C=C[C@@H](O)[C@]3(CC[C@@](C)([C@H]4CC[C@](O)(CC)[C@H](C)O4)O3)O2)[C@H](C)C[C@@H]1C",
    "Experimental target": "M. tuberculosis isoniazid-sensitive strain (spec. 192)",
    "Reported measurement": 25
  },
  {
    "Compound": "CC[C@H](C(=O)NCc1ccc([N+](=O)[O-])cc1)C1CC[C@H](C)C([C@@H](C)[C@H](O)[C@H](C)C(=O)[C@H](CC)C2O[C@]3(C=C[C@@H](O)C4(CC[C@@](C)(C5CC[C@](O)(CC)[C@H](C)O5)O4)O3)[C@H](C)C[C@@H]2C)O1 (stereo partly shown)",
    "Experimental target": "M. tuberculosis isoniazid-sensitive strain (spec. 192)",
    "Reported measurement": 50
  }
]

For CCC(C(=O)NCc1ccccc1[N+](=O)[O-])C1CCC(C)C(C(C)C(O)C(C)C(=O)C(CC)C2OC3(C=CC(O)C4(CCC(C)(C5CCC(O)(CC)C(C)O5)O4)O3)C(C)CC2C)O1 (stereo not shown) the compound record lists MIC as 50
